test system: M19-MEL melanoma; test: NCI tumour cell line growth inhibition, 48 h
Decision: TGI >= 10 µM yields True, all other cases yield False.

Please check the record "COc1cc(N)c2[nH]c3c(C)ccc(C)c3c2c1" and state if its TGI is at or above 10 µM.
True

Decide: TGI of "O=C1OC(c2ccccc2)(c2ccccc2)c2ccc3ccc(F)cc3c21" >= 10 µM?
True

# check: TGI of COc1cccc2c1C(=O)c1c(O)c3c(c(O)c1C2=O)C[C@@](O)(C(C)=O)C[C@@H]3OC1CC([N+]([O-])(Cc2ccccc2)Cc2ccccc2)C(O)C(C)O1 (stereo partly specified) is greater than or equal to 10 µM
False

Item "Brc1c2nc3ccccc3nc2n2ccc3ccccc3c12" with TGI of 10 µM or above?
True

Does the compound "O=c1nc(NC(c2ccccc2)(c2ccccc2)c2ccccc2)ccn1CCCl" have recorded TGI that is 10 µM or more?
True

API: above_or_equal(metric=TGI, cutoff=10 µM) for item "O=S(=O)(c1ccccc1)c1nccs1"
True

Tell me whether TGI is at least 10 µM here: "CC(=O)Oc1c2c(c(OC(C)=O)c3c1n(C(C)=O)c1ccccc1n3C(C)=O)n(C(C)=O)c1ccccc1n2C(C)=O"
True

Check if TGI >= 10 µM (inclusive). Item: "Nc1ncnc2c1sc(=S)n2-c1ccccc1"
True

Please tell me: is the compound "C[N+](C)=c1ccc2nc3c(ccc4ccccc43)oc-2c1" at or over 10 µM in terms of TGI?
True

Does "CCOP(=O)(OCC)/C(C#N)=C\c1ccsc1" have a reported TGI of at least 10 µM?
True

Decide: is the reported value of TGI for "N=c1n(CC(=O)NC23CC4CC(CC(C4)C2)C3)c2ccccc2n1CC(=O)NC12CC3CC(CC(C3)C1)C2" equal to or greater than 10 µM?
False

* * *

I'd be grateful if you could share measured TGI for these entries.
tested on: OVCAR-3 ovarian; experiment: NCI tumour cell line growth inhibition, 48 h

GET /value?item= "C/C=C/c1cc2c(c(=O)o1)C(=O)[C@@H](O)[C@H](C)O2" &field=TGI returns 32.8 µM

response.value for "COc1cccc(OC(=O)c2ccc(C(F)(F)F)nc2Nc2c(C)cccc2Cl)c1" (field: TGI) = 69.2 µM

The molecule listed as COCCOC(C)C(=O)C(O)S(=O)(=O)O (stereo not given) has a reported TGI of > 100 µM

Notebook: "N#CNC(=NCc1ccccc1)NCCc1c[nH]c2ccccc12" , TGI read as > 100 µM

Looking up O=C1C=CC(=O)C2C1Cc1ccccc1C2c1ccccc1 (stereo not given) , I see its TGI listed as 88.3 µM

The recorded TGI for CC(N)Cc1ccc(Cl)cc1 (stereo not given) is > 100 µM

Data point: "Cn1c(=O)c2c(nc3n2CCC(=O)N3CCCCl)n(C)c1=O" ; TGI = > 100 µM

Data point: "CCCCCCCCCCCC[N+](C)(C)Cc1ccccc1" ; TGI = 4.02 µM

TGI reported for this molecule COc1cccc2c1C(=O)c1c(O)c3c(c(O)c1C2=O)C[C@@](O)(C(C)=O)C[C@@H]3OC1CC([N+]([O-])(Cc2ccccc2)Cc2ccccc2)C(O)C(C)O1 (stereo not given in full) : 3.28 µM

Measured TGI, "COc1cccc(Sc2ccc([N+](=O)[O-])c3no[n+]([O-])c23)c1" : 7.48 µM

Documented TGI of "CNC(=O)c1cc2nc3ccccc3c(=O)n2c2ccccc12" : > 10 µM

Record "CC(=O)NNC(=S)/N=C\c1c(O)c2ccccc2oc1=O" . Reported TGI: > 100 µM

The recorded TGI for CO[C@H]1CC[C@]2(C)C3=CC[C@@]4(C)C(CC[C@@H]4C(C)CC[C@@H](C)C(C)C)C(=CCC2C1)O3 (stereo not given in full) is > 25 µM

Field TGI (entry "CC(C(=O)NCCNC(=O)CCC(=O)N(C)O)C(=O)NCCNC(=O)CCC(=O)N(C)O" ) reads > 100 µM

CC1(C)OC2CC3COC(=O)C3CC2O1 (stereo not given) has a reported TGI of > 100 µM

For "NC(=O)COc1c(Br)cc(Br)cc1Br" the molecule record lists TGI as > 100 µM

The molecule "O=c1cc(-c2ccccc2)oc2ccc(OC/C(=N/O)c3ccc(F)cc3)cc12" showed TGI equal to 7.2 µM

Entry O=C(O)CN1CCCC(Cc2c[nH]c3ccccc23)C1 (stereo not given) , TGI reported as > 100 µM

What the record says about "C/C(=N/NC(=S)N(C)C)c1ccccc1O" : TGI is > 26.3 µM

response.value for "NCCOCn1cc(Cc2cccc(OCc3ccccc3)c2)c(=O)[nH]c1=O" (field: TGI) = > 100 µM

Entry "S=c1nc(C(c2ccccc2)c2ccccc2)[nH][nH]1" — recorded TGI = > 100 µM

According to the records, this molecule "Fc1ccc2[nH]cc(-c3nc(-c4c[nH]c5ccncc45)cs3)c2c1" displays TGI of 3.3 µM

Entry "COc1ccc2c3c(c(C(=O)O)oc13)CCC2" — recorded TGI = > 100 µM

So, "COc1ccc(C(C#N)=C2C=CC(=NO)C=C2)cc1" ? Its TGI was 13.4 µM

Note to self: TGI recorded for "COC(=O)[C@@H]1[C@H](O)CCC2=C(CC(=O)c3ccoc3)[C@H](C)CC[C@]21C" was > 50 µM

According to the records, this molecule "CC(C)=O.O=C([O-])C(F)(F)F.O=C([O-])C(F)(F)F.O=C([O-])C(F)(F)F.O=C([O-])C(F)(F)F.[Rh+2].[Rh+2]" displays TGI of > 100 µM

The molecule listed as "CSc1c2c(C)n[nH]c2nn1-c1ccccc1" has a reported TGI of > 100 µM

Entry COc1cccc2c1C(=O)c1c(O)c3c(c(O)c1C2=O)C[C@@](O)(C(=O)CN1CCOCC1)C[C@@H]3OC1CC(N)C(O)C(C)O1 (stereo not given in full) — recorded TGI = 57.4 µM

Documented TGI of "CCNc1cc2oc(=O)cc(C(F)(F)F)c2cc1C" : > 100 µM

The measured TGI associated with Nc1ncnc2c1ncn2C1OC(CO)C(O)C1NS(=O)(=O)c1ccccc1 (stereo not given) reads > 100 µM

// sample COc1cc2c(c(O)c1C)C(=O)CC(c1ccccc1)O2 (stereo not given) , its TGI was > 100 µM

// TGI value for "O=C(O)CNc1ccc(Cl)c(Cl)c1" : 82.4 µM

Reported TGI of "Cc1cc2c(cc1C)[n+](=O)c(C(=O)/C=C/c1ccc3c(c1)OCO3)c(C)n2[O-]" : > 100 µM

Looking up "COc1cc(N)c2[nH]c3c(C)ccc(C)c3c2c1" , I see its TGI listed as > 100 µM

TGI measured on "Oc1[nH]c(N=C2N=c3ccccc3=N2)c2ccccc12" = 19.2 µM

* * *

tested on: NCI-H460 lung; assay: NCI tumour cell line growth inhibition, 48 h
*1 amine or outer side, *2 acyl side, *3 side chain or, on linkers, in order; H or OH if unused. Where a SMILES comes first, the peptide text is derived from it. Bridges are numbered along the chain shown (N, C = ends). Roman numbers before positions name the chains, in order. [ ]: non-standard residue; d: D form. The star is where a group is joined. Actinocin(9to1) = Cc1c2oc3c(C)ccc(C(=O)[*:1])c3nc-2c(C(=O)[*:2])c(N)c1=O; NMeV = CN[CH](C(=O)O)C(C)C; Boc = CC(C)(C)OC(=O)*; Sar = CNCC(=O)O
Could you please report measured TGI for the items listed next?

Reported TGI (NCI-H460 lung) for entry "COc1cc(OC)c(/C=C/C(=O)c2ccc(Nc3ncnc4ccccc34)cc2)c(OC)c1" is 2.01 µM

Reported NCI-H460 lung TGI for item Nc1ncnc2c1ncn2CCCC(c1ccccc1)P(=O)(O)O (stereo not drawn) was > 100 µM

// molecule "Cc1cc2c(cc1C)[n+](=O)c(C(=O)/C=C/c1ccc3c(c1)OCO3)c(C)n2[O-]" , assay NCI-H460 lung, TGI value: > 100 µM

Log: NCI-H460 lung, molecule "Nc1nc(Nc2ccc(Cl)cc2)sc1C(=O)c1c[nH]c2ccccc12" , TGI = 21.3 µM

Observed TGI, NCI-H460 lung, "N#C/C(=C/n1c(=S)[nH]c2ccccc21)C(N)=O" : > 100 µM

The observed TGI for "Cc1cc(C)nc(NS(=O)(=O)c2ccc(Nc3c4ccccc4nc4c(C(=O)Nc5ccc(S(=O)(=O)Nc6cc(C)on6)cc5)ccc(Cl)c34)cc2)n1" when tested with NCI-H460 lung stands at 61.3 µM

Result for "COc1ccc2c3c(c(C(=O)O)oc13)CCC2" , tested on NCI-H460 lung, TGI: > 100 µM

I looked up "S=c1nc(C(c2ccccc2)c2ccccc2)[nH][nH]1" and its TGI for NCI-H460 lung was > 100 µM

Kindly note: NCI-H460 lung, "O=C1Nc2ccccc2/C1=C\c1cccc(/C=C2/C(=O)Nc3ccccc32)n1" , TGI value reported: 1.85 µM

Item: "COc1cc(NS(C)(=O)=O)ccc1NCc1cnc2ccc3[nH]cccc3c12" | System: NCI-H460 lung | TGI: 42.1 µM

// molecule CC(=Nc1ccccc1)C1=C(O)C(Cc2cccc(F)c2)NC1=O (stereo not drawn) , assay NCI-H460 lung, TGI value: > 100 µM

Form field, TGI with NCI-H460 lung, item "NC(=S)Nc1ccc2c(c1)oc1ccccc12" : > 100 µM

Here O=C1NC(O)c2ccccc2O1 (stereo not drawn) was tested on NCI-H460 lung, and its TGI came to > 100 µM

Per the reported NCI-H460 lung data, CSCCC(NC(=O)C(CC(C)C)NC(=O)C1CCCN1C(=O)C(Cc1ccccc1)NC(=O)C(Cc1ccccc1)NC(=O)C(CCC(=O)O)NC(=O)OC(C)(C)C)C(N)=O (stereo not drawn) (Boc-EFFPLM-NH2; configuration not given here) has TGI of > 100 µM

TGI value, target or system NCI-H460 lung, for "COc1ccc(C(=O)c2c(-c3ccccc3NC(=O)C(F)(F)F)[nH]c3ccccc23)cc1" : 16.4 µM

Record "CCC#CC[C@H](O)C/C=C1/C(=O)C=C[C@@H]1C/C=C\CCCC(=O)OC" / NCI-H460 lung, TGI recorded as 3.55 µM

The recorded TGI with NCI-H460 lung for "CCCc1n[nH]c(=O)n1N1C(=O)C=CC1=O" was > 100 µM

// returns TGI for COC1=CC(=O)C2C(C1=O)[C@@H]1c3ccccc3OC(C)(C)[C@H]21 (stereo partly drawn) with NCI-H460 lung; value = > 100 µM

Short answer on NCI-H460 lung for "CCN(CCCl)CCCCCNc1c2ccccc2nc2ccc(OC)cc12" , TGI: 1.51 µM

Hey, NCI-H460 lung data for COC1(OC)C2(Cl)C(Cl)=C(Cl)C1(Cl)C1c3ccc(C(C)=O)c4cccc(c34)C12 (stereo not drawn) : TGI came out at > 80.5 µM

The value of TGI recorded for CCOC(=O)C1(C#N)C2(C#N)C(N)=NC(ON=C(C)C)(ON=C(C)C)C12C#N (stereo not drawn) when tested on NCI-H460 lung reads > 100 µM

Here "O=C(NNS(=O)(=O)c1ccc(Br)cc1)c1ccc(Cl)cc1NC(=O)C12CC3CC(CC(C3)C1)C2" was tested on NCI-H460 lung, and its TGI came to 23.4 µM

Summary line: Cc1c2oc3c(C)ccc(C(=O)OC(C)C4NC(=O)C(C(C)C)N(C)C(=O)CN(C)C(=O)C5CCCN5C(=O)C(C(C)C)NC4=O)c3nc-2c(C(=O)OC(C)C2NC(=O)C(C(C)C)N(C)C(=O)CN(C)C(=O)C3CCCN3C(=O)C(C(C)C)NC2=O)c(N)c1=O (stereo not drawn) (I: cyclo([Sar][NMeV]TVP) / II: cyclo([Sar][NMeV]TVP); linker I:3-II:3 via Actinocin(9to1); configuration not given here) , NCI-H460 lung, reported TGI = > 32.7 µM

Kindly note: NCI-H460 lung, "N#CNC(=NCc1ccccc1)NCCc1c[nH]c2ccccc12" , TGI value reported: > 100 µM

Item: O=C1C=CC(=O)C2C1Cc1ccccc1C2c1ccccc1 (stereo not drawn) | System: NCI-H460 lung | TGI: 81.4 µM

Record CC(CN(C)C)S(=O)(=O)c1ccc(-c2cnc(N)c(C(=O)Nc3ccccc3)n2)cc1 (stereo not drawn) has NCI-H460 lung TGI equal to 22.2 µM

Log: NCI-H460 lung, molecule "Oc1cc(O)c2c(c1)O[C@H](c1cc(O)c(O)c(O)c1)[C@@H](O)C2" , TGI = 37.7 µM

The value of TGI recorded for "NCCOCn1cc(Cc2cccc(OCc3ccccc3)c2)c(=O)[nH]c1=O" when tested on NCI-H460 lung reads > 100 µM

So the reported TGI for "Oc1cc(Cl)cc2cc(Cl)cnc12" , on NCI-H460 lung, turned out to be 14 µM

// assay NCI-H460 lung, entry "C[C@@H](NC(=O)[C@@H]1C[C@]1(C)CO)c1cccc2ccccc12" , TGI value = > 100 µM

Readout TGI for "C/C=C/c1cc2c(c(=O)o1)C(=O)[C@@H](O)[C@H](C)O2" , test system NCI-H460 lung, was 46.9 µM

So the reported TGI for "CCn1c(-c2ccc(OC)cc2)nc2c1C(=O)c1ccccc1C2=O" , on NCI-H460 lung, turned out to be > 100 µM

Log: NCI-H460 lung, molecule "Cc1c(OCCCOc2ccc3c(=O)cc(-c4ccccc4)oc3c2C)ccc2c(=O)cc(-c3ccccc3)oc12" , TGI = > 100 µM

Entry COc1ccc(C2S/C(=C\c3cccc(OC)c3)C(=O)N2NC(=O)Cc2ccccc2)cc1 (stereo not drawn) : TGI on NCI-H460 lung = > 100 µM

Assay NCI-H460 lung, sample CC1(C)OC2CC3COC(=O)C3CC2O1 (stereo not drawn) , TGI read: > 100 µM

Query "CCOP(=O)(OCC)/C(C#N)=C\c1ccsc1" on NCI-H460 lung; TGI returned: > 100 µM

Entry "CC/C=C\C[C@H](O)C/C=C1/C(=O)C=C[C@@H]1C/C=C\CCCC(=O)OC(C)C" ; assay system NCI-H460 lung; TGI recorded at 3.97 µM

Tested on NCI-H460 lung: "Cc1ccc2[nH]c3c(c2c1)N=c1ccccc1=NO3" . Observed TGI: > 100 µM
